system: HL-60(TB) leukemia; test: NCI tumour cell line growth inhibition, 48 h
reported property: TGI (µM)
Give bare numbers, in µM.

> print(dat)
                                   compound  reported.measurement
1  O=C(O)C(F)(F)C(F)(F)C(F)(F)C(F)(F)C(F)(F)C(F)(F)C(F)(F)C(F)(F)F                  62.4
2  O=C1C(Cl)C(c2cc(Br)ccc2O)N1n1cnc2ccccc2c1=O (configuration not stated)                  16.4

I'm hoping you can list TGI for every compound here, please.
1. O=C1CCCC/C1=C(\Br)I
2. CCc1ccccc1NC(=O)C1=C(C)NC(C)=C(C(=O)Nc2c(CC)cccc2CC)C1c1ccc2c(c1)OCO2 (configuration not stated)

5.71
58.4
